The values you see were collected from ChEMBL document CHEMBL5528074.

run description: Metabolic stability in rat liver microsomes assessed as compound remaining at 1 uM incubated for 60 mins in presence of NADPH/UDPGA by LC-MS/MS analysis
Assay type: ADME, Microsome
experimental context: read-out: Stability
quantity: remaining at 1 h, 1 µM (%)
Field format: number, assumed %, no unit text.

Query: Given the entry `Nc1nc2ccc(C(=O)N3CCN(C(=O)/C=C/c4ccc(Br)cc4)CC3)cc2s1` , report its measured remaining at 1 h, 1 µM.
Result: 95.9

---

run description: Metabolic stability in dog liver microsomes assessed as half life at 10 uM incubated for 60 mins in presence of NADPH/UDPGA by LC-MS/MS analysis
Assay type: ADME, Canis lupus familiaris, Microsome
quantity: half-life at 10 µM
Answer as a quantity: numeral, then unit.

Query: Return reported half-life at 10 µM; argument: `Nc1nc2ccc(C(=O)N3CCN(C(=O)/C=C/c4ccc(Br)cc4)CC3)cc2s1`
Result: 6.42 h

---

run description: Metabolic stability in mouse liver microsomes assessed as intrinsic clearance
Type: ADME, Microsome
experimental context: read-out: CLH
quantity: microsomal CLint (µL/min/mg)
Reply numerically in µL/min/mg, unit not repeated.

Query: Quick one: microsomal CLint of `COc1ccc(C(=O)N2CCN(C(=O)/C=C/c3ccc(Br)cc3)CC2)cc1` ?
Result: 46

Query: Would you mind telling me what microsomal CLint value was observed for `O=C(COc1ccc2ccccc2c1)N1CCN(C(=O)Cc2ccccc2)CC1` ?
Result: 301

---

run description: Cmax in C57BL/6 mouse at 1 mg/kg, iv measured upto 24 hrs by LC-MS/MS analysis
Type: ADME, organism-based
experimental context: in vivo
For each of the compounds below, state its Cmax.
Reply numerically in ng/mL, unit not repeated.

Query: If you can, please state the reported Cmax value of `COc1ccc(C(=O)N2CCN(C(=O)/C=C/c3ccc(Br)cc3)CC2)cc1` .
Result: 612

Query: What value of Cmax has been reported for the following compound? `Nc1nc2ccc(C(=O)N3CCN(C(=O)/C=C/c4ccc(Br)cc4)CC3)cc2s1`
Result: 828

---

Test system: U-937
run description: Antimigratory activity against human U-937 cells assessed as inhibition of 7alpha,25-dihydroxycholesterol induced cell migration by CCK-8 method
Type: functional, cell-based
quantity: IC50 (nM)
Write the answer as a number in nM, unit excluded.

Query: Item `COc1ccc(C(=O)N2CCN(C(=O)/C=C/c3ccc(Br)cc3)CC2)cc1` with U-937 - IC50?
Result: 4.5

Query: Identify the measured IC50 of `Nc1nc2ccc(C(=O)N3CCN(C(=O)/C=C/c4ccc(Br)cc4)CC3)cc2s1` for U-937.
Result: 0.73

---

target: G-protein coupled receptor 183 (Homo sapiens, UniProt P32249)
Sequence (P32249 whole entry): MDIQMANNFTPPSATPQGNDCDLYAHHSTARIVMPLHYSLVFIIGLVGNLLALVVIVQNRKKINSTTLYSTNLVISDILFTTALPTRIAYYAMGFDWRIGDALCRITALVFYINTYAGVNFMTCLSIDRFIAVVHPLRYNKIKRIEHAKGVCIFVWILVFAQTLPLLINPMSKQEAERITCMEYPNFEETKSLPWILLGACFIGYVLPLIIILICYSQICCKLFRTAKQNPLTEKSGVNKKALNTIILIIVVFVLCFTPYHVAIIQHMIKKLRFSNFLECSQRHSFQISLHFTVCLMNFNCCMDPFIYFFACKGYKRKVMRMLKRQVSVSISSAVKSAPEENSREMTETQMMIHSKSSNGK
run description: Antagonist activity at GPR183 (unknown origin) transfected in HEK293 cells assessed as reversal of 7alpha,25-Dihydroxycholesterol induced cAMP reduction incubated for 30 mins by Glosensor cAMP assay
Format: functional, cell-based
quantity: pIC50
Convention used: pIC50 is expressed as -log10 of the molar concentration.

Query: Entry under review: `Nc1nc2ccc(C(=O)N3CCN(C(=O)/C=C/c4ccc(Br)cc4)CC3)cc2s1` . Reported pIC50?
Result: 9.09

---

run description: Half life in C57BL/6 mouse at 1 mg/kg, iv measured upto 24 hrs by LC-MS/MS analysis
Format: ADME, organism-based
experimental context: in vivo
Consider the following molecules; for each one, report its half-life.
Report the figure in h without appending any unit label.

Query: So what's the measured half-life for this one? `Nc1nc2ccc(C(=O)N3CCN(C(=O)/C=C/c4ccc(Br)cc4)CC3)cc2s1`
Result: 1.61

Query: What does the record list as half-life for `COc1ccc(C(=O)N2CCN(C(=O)/C=C/c3ccc(Br)cc3)CC2)cc1` ?
Result: 1.17

---

quantity: pIC50
Just so you know, pIC50 here is -log10 of the concentration in molar units; reply with that number alone.

Query: Tell me reported pIC50 for `CC(=O)Nc1nc2ccc(C(=O)N3CCN(C(=O)/C=C/c4ccc(Br)cc4)CC3)cc2s1` , tested with G-protein coupled receptor 183 (Homo sapiens).
Result: 7.72

Query: Write down the reported pIC50 of `CNc1nc2ccc(C(=O)N3CCN(C(=O)/C=C/c4ccc(Br)cc4)CC3)cc2s1` , test system: G-protein coupled receptor 183 (Homo sapiens).
Result: 8.21

Query: Provide value of pIC50 for this record tested with G-protein coupled receptor 183 (Homo sapiens): `Nc1nc2ccc(C(=O)N3CCN(C(=O)/C=C/c4ccc(Br)cc4)CC3)cc2s1`
Result: 9.09

Query: Report pIC50 for `Nc1nc2ccc(C(=O)N3CCN(C(=O)/C=C/c4ccc(F)c(F)c4)CC3)cc2s1` tested on G-protein coupled receptor 183 (Homo sapiens).
Result: 5.90

Query: What pIC50 appears in the records for this compound with G-protein coupled receptor 183 (Homo sapiens)? `Cn1cnc2cc(C(=O)N3CCN(C(=O)/C=C/c4ccc(Br)cc4)CC3)ccc21`
Result: 6.35

Query: Lab note: need pIC50 for `O=C(Nc1nc2ccc(C(=O)N3CCN(C(=O)/C=C/c4ccc(Br)cc4)CC3)cc2s1)C1CC1` on G-protein coupled receptor 183 (Homo sapiens), anyone have it?
Result: 7.11

Query: Query the reported pIC50 for G-protein coupled receptor 183 (Homo sapiens); item: COc1ccc(NC(=O)CC2CCN(C(=O)/C=C/c3ccc(Br)cc3)CC2(F)F)cc1 (configuration not stated)
Result: 7.27

Query: Fill in the recorded pIC50 for this compound, with G-protein coupled receptor 183 (Homo sapiens) as test system: `Cn1ccc2ccc(C(=O)N3CCN(C(=O)/C=C/c4ccc(Br)cc4)CC3)cc21`
Result: 8.10

Query: Form field: pIC50 recorded for `COc1ccc(C(=O)NCC2(F)CCN(C(=O)/C=C/c3ccc(Br)cc3)CC2)cc1` with G-protein coupled receptor 183 (Homo sapiens) (enter value)
Result: 7.18

Query: Test system G-protein coupled receptor 183 (Homo sapiens); read-out pIC50; what value for `Nc1nc2ccc(C(=O)N3CCN(C(=O)/C=C/c4ccc(C(F)(F)F)c(Cl)c4)CC3)cc2s1` ?
Result: 7.13

---

I'd appreciate it if you could supply Cmax values for the items below.
run description: Cmax in C57BL/6 mouse at 3 mg/kg, po measured upto 24 hrs by LC-MS/MS analysis
Assay type: ADME, organism-based
experimental context: in vivo
Answer with a number only, understood to be in ng/mL.

Query: # Cmax lookup, item `COc1ccc(C(=O)N2CCN(C(=O)/C=C/c3ccc(Br)cc3)CC2)cc1`
Result: 640

Query: Would you kindly share the measured Cmax for `Nc1nc2ccc(C(=O)N3CCN(C(=O)/C=C/c4ccc(Br)cc4)CC3)cc2s1` ?
Result: 817

---

run description: AUC infinity in C57BL/6 mouse at 1 mg/kg, iv measured upto 24 hrs by LC-MS/MS analysis
Assay type: ADME, organism-based
experimental context: in vivo
So I've got a bunch of compounds here, and I need their AUC(0-inf) values.

Query: Name the recorded AUC(0-inf) for `Nc1nc2ccc(C(=O)N3CCN(C(=O)/C=C/c4ccc(Br)cc4)CC3)cc2s1` .
Result: 1920 ng·h/mL

Query: # query: AUC(0-inf) of entry `COc1ccc(C(=O)N2CCN(C(=O)/C=C/c3ccc(Br)cc3)CC2)cc1`
Result: 966 ng·h/mL

---

run description: Oral bioavailability in C57BL/6 mouse at 3 mg/kg measured upto 24 hrs by LC-MS/MS analysis
Type: ADME, organism-based
experimental context: in vivo
Can you tell me bioavailability for the items I'm about to list?
Give a bare numeral; the unit % is implied.

Query: # lookup: bioavailability of `COc1ccc(C(=O)N2CCN(C(=O)/C=C/c3ccc(Br)cc3)CC2)cc1`
Result: 71.4

Query: What does the data say about its bioavailability? Entry: `Nc1nc2ccc(C(=O)N3CCN(C(=O)/C=C/c4ccc(Br)cc4)CC3)cc2s1`
Result: 71.1

---

G-protein coupled receptor 183 (Homo sapiens, UniProt P32249): reported pIC50 for various molecules.
The quantity pIC50 is defined as the negative base-10 logarithm of the molar concentration.

Query: // pIC50 lookup, key: `Nc1nc2ccc(C(=O)N3CCN(C(=O)/C=C/c4ccc(F)cc4)CC3)cc2s1`
Result: 6.06

Query: Which value of pIC50 has been reported for `O=C(/C=C/c1ccc(Br)cc1)N1CCN(C(=O)c2ccc3nc(C(F)(F)F)sc3c2)CC1` in the records?
Result: 8.60

Query: Entry `N#Cc1ccc(/C=C/C(=O)N2CCN(C(=O)c3ccc4nc(N)sc4c3)CC2)cc1` : reported pIC50 = ?
Result: 6.59

Query: Which pIC50 reading was recorded for the molecule `Cc1c[nH]c2cc(C(=O)N3CCN(C(=O)/C=C/c4ccc(Br)cc4)CC3)ccc12` ?
Result: 7.72

Query: What value of pIC50 has been reported for the following molecule? `Nc1nc2ccc(C(=O)N3CCN(C(=O)/C=C/c4ccc(C(F)(F)F)cc4)CC3)cc2s1`
Result: 7.52

Query: What value of pIC50 has been reported for the following molecule? `CN(C)c1nc2ccc(C(=O)N3CCN(C(=O)/C=C/c4ccc(Br)cc4)CC3)cc2s1`
Result: 7.26

Query: Give its pIC50 value. Item: `COc1ccc(NC(=O)C(F)(F)C2CCN(C(=O)/C=C/c3ccc(Br)cc3)CC2)cc1`
Result: 8.24

Query: Which pIC50 is listed for `Cc1cc2ccc(C(=O)N3CCN(C(=O)/C=C/c4ccc(Br)cc4)CC3)cc2[nH]1` ?
Result: 8.12

Query: Which pIC50 is listed for `O=C(/C=C/c1ccc(Br)cc1)N1CCN(C(=O)c2ccc3ncsc3c2)CC1` ?
Result: 8.52

Query: Tell me the measured pIC50 of `Nc1nc2ccc(C(=O)N3CCN(C(=O)/C=C/c4ccc5c(c4)OC(F)(F)O5)CC3)cc2s1` , please.
Result: 7.36

Query: For the molecule `COc1ccc(NC(=O)CC2CCN(C(=O)/C=C/c3ccc(Br)cc3)CC2)cc1` , what pIC50 is on record?
Result: 7.71

Query: Value lookup for pIC50; key = `Nc1nc2ccc(C(=O)N3CCN(C(=O)/C=C/c4ccc5c(c4)CCO5)CC3)cc2s1`
Result: 6.41

Query: Item under review: `Nc1nc2ccc(C(=O)N3CCN(C(=O)/C=C/c4ccc(F)cc4F)CC3)cc2s1` . Reported pIC50?
Result: 5.08

Query: Please give the measured pIC50 for this molecule: `Nc1nc2ccc(C(=O)N3CCN(C(=O)/C=C/c4ccc(Cl)cc4)CC3)cc2s1`
Result: 7.80
